The values you see were collected from the supplement of paper PMC12067926.

Examples of compounds with documented relative growth follow.
# Tested on: Aeromonas 3 (Aeromonas popoffii)
# assayInfo: relative growth (AUC of 72 h growth curve relative to DMSO control, dAUC) (ratio); higher = more growth (less inhibition), active = hit call of the paper
# condition: 20 µM
endpoint: relative growth

{"columns": ["compound", "endpoint", "result"],
 "data": [
  ["CCC(=O)Nc1ccc(Cl)c(Cl)c1", "relative growth", "0.955 (inactive)"],
  ["COC(=O)c1ccccc1S(=O)(=O)NC(=O)Nc1nc(C)nc(OC)n1", "relative growth", "1.07 (inactive)"],
  ["C#CCOc1ccc(CCNC(=O)C(OCC#C)c2ccc(Cl)cc2)cc1OC (stereo unspecified)", "relative growth", "1 (inactive)"],
  ["Cc1cccc2sc3nncn3c12", "relative growth", "1 (inactive)"],
  ["CON(C)C(=O)Nc1ccc(Cl)c(Cl)c1", "relative growth", "0.996 (inactive)"],
  ["N#Cc1c[nH]cc1-c1cccc2c1OC(F)(F)O2", "relative growth", "0.986 (inactive)"],
  ["CCCN(CCC)C(=O)SCc1ccccc1", "relative growth", "1 (inactive)"],
  ["O=C(NCCc1ncc(C(F)(F)F)cc1Cl)c1ccccc1C(F)(F)F", "relative growth", "0.973 (inactive)"],
  ["CN/C(=N\\[N+](=O)[O-])NCc1cnc(Cl)s1", "relative growth", "0.985 (inactive)"],
  ["C#CCN1C(=O)COc2cc(F)c(N3C(=O)C4=C(CCCC4)C3=O)cc21", "relative growth", "0.982 (inactive)"],
  ["CCC(C)(C)C(=O)OC1=C(c2ccc(Cl)cc2Cl)C(=O)OC12CCCCC2", "relative growth", "1 (inactive)"]
]}

---

# Test system: Oryzobacter 1 (Oryzobacter terrae)
# assayInfo: relative growth (AUC of 72 h growth curve relative to DMSO control, dAUC) (ratio); higher = more growth (less inhibition), active = hit call of the paper
# condition: 20 µM
Class True: relative growth at least 1. Class False: relative growth below 1.

{"columns": ["molecule", "categoryLabel"],
 "data": [
  ["COP(=S)(OC)Oc1nc(Cl)c(Cl)cc1Cl", "True"],
  ["O=[N+]([O-])/N=C1\\NCCN1Cc1ccc(Cl)nc1", "False"],
  ["Cc1nc(N(C)C)nc(OC(=O)N(C)C)c1C", "False"],
  ["CC(Oc1ccc(Oc2ncc(C(F)(F)F)cc2Cl)cc1)C(=O)O (stereo unspecified)", "True"],
  ["COP(=O)(OC)OC=C(Cl)Cl", "False"],
  ["CO/N=C(/C(=O)OC)c1ccccc1CO/N=C(\\C)c1cccc(C(F)(F)F)c1", "True"]
]}

---

# Tested on: Bacillus 1 (Bacillus foraminis)
# assayInfo: relative growth (AUC of 72 h growth curve relative to DMSO control, dAUC) (ratio); higher = more growth (less inhibition), active = hit call of the paper
# condition: 20 µM
relative growth values for the molecules below.

{"columns": ["testSmiles", "relative growth"],
 "data": [
  ["O=C(Nc1ccccc1-c1ccc(Cl)cc1)c1cccnc1Cl", "1.01 (inactive)"],
  ["CCCN(CCC)C(=O)SCc1ccccc1", "0.998 (inactive)"],
  ["Cc1cc(C)c(C2=C(OC(=O)CC(C)(C)C)C3(CCCC3)OC2=O)c(C)c1", "0.993 (inactive)"]
]}
